Reference for the values: patent US20180000085A1

- Tested on: Puccinia triticina
- measurement_protocol: Wheat brown rust (PUCCRT) disease control on wheat seedlings
- Format: in vivo
- stated_conditions: low volume application, 125.1 g/H, 3 Day Curative
attribute_measured: PUCCRT 3DC, LV activity at 125.1 g/H (% Control rating)

Sample records with PUCCRT 3DC, LV activity at 125.1 g/H (% Control rating):
* COc1ccnc(C(=O)N[C@@H](C)C(=O)O[C@@H](C)[C@H](Oc2cccc(Cl)c2)C(C)C)c1OCOC(C)=O [Cmpd 561] | A (> 80)
* COc1ccnc(C(=O)N[C@@H](C)C(=O)O[C@@H](C)[C@H](Oc2cc(F)cc(Cl)c2)c2ccccc2)c1OC(C)=O [Cmpd 642] | B (≤ 80)
* COc1ccnc(C(=O)NC(C)C(=O)OC(C)COC(C)(C)C)c1OCOC(C)=O (stereo not shown) [Cmpd 535] | B (≤ 80)
* CCC(CC)[C@@H](Oc1cc(F)ccc1F)[C@H](C)OC(=O)[C@H](C)NC(=O)c1nccc(OC)c1OC(C)=O [Cmpd 602] | A (> 80)
* COc1ccnc(C(=O)N[C@@H](C)C(=O)O[C@H](C)[C@@H](Oc2ccccc2)c2ccccc2)c1OCOC(C)=O [Cmpd 547] | A (> 80)

For the molecule COc1ccnc(C(=O)N[C@@H](CC(C)C)C(=O)O[C@@H](C)[C@H](Oc2ccc(Cl)cc2Cl)C(C)C)c1OC(C)=O [Cmpd 570] , what PUCCRT 3DC, LV activity at 125.1 g/H (% Control rating) is on record?
D

For the molecule COc1ccnc(C(=O)N[C@H](C)C(=O)O[C@@H](C)[C@H](Oc2ccccc2)C(C)C)c1OCOC(C)=O [Cmpd 558] , what PUCCRT 3DC, LV activity at 125.1 g/H (% Control rating) is on record?
B (≤ 80)
